Tested on: MCF-7 cells
procedureDetails: MTT assay of metabolic activity, MCF-7
Format: cell-based, human
details: Homo sapiens, MCF7, read-out: IC50, reduction of growth of MCF-7 cells
experimentalReadout: IC50 (µM)
One number for each entry, in µM.

Summary: CCC(=C(c1ccc(O)cc1)c1ccc(C=CC(=O)O)cc1)c1ccccc1 (mixture of isomers) [GW7604] , MCF-7 cells, IC50 = 0.171

----------
Tested on: MCF-7 cells
procedureDetails: MTT assay of metabolic activity, MCF-7
Type: cell-based, human
details: 72 h, MTT; read-out: IC50 MCF-7
Field: IC50. Provide a value for each of the molecules that follow.
One number for each entry, in µM.

CCC(=C(c1ccc(O)cc1)c1ccc(C=CC(=O)OCCC[CH]2[CH2][Pt-]2([Cl])([Cl])[Cl])cc1)c1ccccc1.[K+] (mixture of isomers) ... 19.6

Shift focus to the following entry.
Short answer for N.N.[Cl][Pt][Cl] [Cisplatin, cis-diamminedichloridoplatinum(II), reference compound] : IC50 was 15

----------
targetOrTestSystem: human recombinant COX-1 (Homo sapiens)
Sequence (P23219 24-599): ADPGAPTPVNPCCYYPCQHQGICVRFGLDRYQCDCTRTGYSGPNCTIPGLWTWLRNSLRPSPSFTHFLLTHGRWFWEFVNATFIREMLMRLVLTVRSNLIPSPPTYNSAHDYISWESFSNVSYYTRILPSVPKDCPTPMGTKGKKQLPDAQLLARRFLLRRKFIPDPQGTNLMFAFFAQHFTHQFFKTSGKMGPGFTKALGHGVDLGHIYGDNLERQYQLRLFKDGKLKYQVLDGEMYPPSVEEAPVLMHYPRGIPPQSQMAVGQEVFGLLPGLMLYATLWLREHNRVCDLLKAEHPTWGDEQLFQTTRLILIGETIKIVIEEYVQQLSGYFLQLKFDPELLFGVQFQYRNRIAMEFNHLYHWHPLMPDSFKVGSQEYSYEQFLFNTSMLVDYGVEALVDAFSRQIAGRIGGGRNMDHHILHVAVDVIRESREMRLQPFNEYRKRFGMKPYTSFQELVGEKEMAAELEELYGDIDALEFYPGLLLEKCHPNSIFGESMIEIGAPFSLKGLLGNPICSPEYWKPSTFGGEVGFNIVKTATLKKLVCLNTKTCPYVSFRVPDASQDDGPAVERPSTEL
details: 0.1–20 μM, incubation 10 min
experimentalReadout: pIC50
Give bare numbers, as −log10 of the molar value.

Form field pIC50, entry CCC(=C(c1ccc(O)cc1)c1ccc(C=CC(=O)OCCC[CH]2[CH2][Pt-]2([Cl])([Cl])[Cl])cc1)c1ccccc1.[K+] (mixture of isomers) : 5.77

----------
targetOrTestSystem: ERβ ligand-binding domain (Homo sapiens)
Sequence (Q92731 264-498 limits assumed): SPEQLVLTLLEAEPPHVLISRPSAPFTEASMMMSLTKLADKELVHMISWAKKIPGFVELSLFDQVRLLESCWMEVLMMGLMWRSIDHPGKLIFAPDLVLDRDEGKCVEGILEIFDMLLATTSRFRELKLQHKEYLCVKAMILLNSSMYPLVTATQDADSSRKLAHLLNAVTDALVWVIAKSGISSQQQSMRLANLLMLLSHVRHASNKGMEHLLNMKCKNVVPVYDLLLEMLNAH
procedureDetails: TR-FRET ligand binding assay, isolated LBD of ERβ
details: read-out: IC50 (ERβ), displacement from the LBS
experimentalReadout: IC50 (nM)
One number for each entry, in nM.

Quick request: IC50 for each listed item, please.
1. C=CCCCOC(=O)/C=C/c1ccc(C(=C(CC)c2ccccc2)c2ccc(O)cc2)cc1 (mixture of isomers)
2. CCC(=C(c1ccc(O)cc1)c1ccc(C=CC(=O)OCCC[CH]2[CH2][Pt-]2([Cl])([Cl])[Cl])cc1)c1ccccc1.[K+] (mixture of isomers)

A.
1. 105
2. 3.99

Where these numbers come from: paper PMC10983001
